Species: Rattus norvegicus
Assay: Open TG-GATES - Regimen: Single
Type: toxicity, organism-based, Sprague-Dawley
Design: regimen Single, gender Male, age 6 weeks
Conditions: in vivo, po, 0 mg/kg, 3 h, tissue Blood, route gavage, dose level Control
Each entry below carries its recorded MCV.
assay_metric: MCV (fL)

[[record]]
compound = "CC(CN1c2ccccc2Sc2ccccc21)N(C)C (stereo not given)"
assay_metric = "MCV"
quantitative_readout = 63.4

[[record]]
compound = "CN(C)[C@@H]1C(O)=C(C(N)=O)C(=O)[C@@]2(O)C(O)=C3C(=O)c4c(O)cccc4[C@@](C)(O)[C@H]3C[C@@H]12"
assay_metric = "MCV"
quantitative_readout = 66.3

[[record]]
compound = "Cc1cccc(Nc2ccccc2C(=O)O)c1C"
assay_metric = "MCV"
quantitative_readout = 61.9

[[record]]
compound = "CC(=O)Nc1nnc(S(N)(=O)=O)s1 [ACETAZOLAMIDE]"
assay_metric = "MCV"
quantitative_readout = 64.8

[[record]]
compound = "Clc1c(Cl)c(Cl)c(Cl)c(Cl)c1Cl"
assay_metric = "MCV"
quantitative_readout = 60.3

